Quick list: EC50 per entry.
Target: T1, Decoy c-Met (extracellular domain of human c-Met) (human, Glycoprotein. In cells it is cleaved by furin after residue 307 into disulfide-linked alpha and beta parts; written here as one chain.)
T1 construct: construct after Basilico et al. 2008; also called Decoy Met; monomeric Decoy Met
T1 chain: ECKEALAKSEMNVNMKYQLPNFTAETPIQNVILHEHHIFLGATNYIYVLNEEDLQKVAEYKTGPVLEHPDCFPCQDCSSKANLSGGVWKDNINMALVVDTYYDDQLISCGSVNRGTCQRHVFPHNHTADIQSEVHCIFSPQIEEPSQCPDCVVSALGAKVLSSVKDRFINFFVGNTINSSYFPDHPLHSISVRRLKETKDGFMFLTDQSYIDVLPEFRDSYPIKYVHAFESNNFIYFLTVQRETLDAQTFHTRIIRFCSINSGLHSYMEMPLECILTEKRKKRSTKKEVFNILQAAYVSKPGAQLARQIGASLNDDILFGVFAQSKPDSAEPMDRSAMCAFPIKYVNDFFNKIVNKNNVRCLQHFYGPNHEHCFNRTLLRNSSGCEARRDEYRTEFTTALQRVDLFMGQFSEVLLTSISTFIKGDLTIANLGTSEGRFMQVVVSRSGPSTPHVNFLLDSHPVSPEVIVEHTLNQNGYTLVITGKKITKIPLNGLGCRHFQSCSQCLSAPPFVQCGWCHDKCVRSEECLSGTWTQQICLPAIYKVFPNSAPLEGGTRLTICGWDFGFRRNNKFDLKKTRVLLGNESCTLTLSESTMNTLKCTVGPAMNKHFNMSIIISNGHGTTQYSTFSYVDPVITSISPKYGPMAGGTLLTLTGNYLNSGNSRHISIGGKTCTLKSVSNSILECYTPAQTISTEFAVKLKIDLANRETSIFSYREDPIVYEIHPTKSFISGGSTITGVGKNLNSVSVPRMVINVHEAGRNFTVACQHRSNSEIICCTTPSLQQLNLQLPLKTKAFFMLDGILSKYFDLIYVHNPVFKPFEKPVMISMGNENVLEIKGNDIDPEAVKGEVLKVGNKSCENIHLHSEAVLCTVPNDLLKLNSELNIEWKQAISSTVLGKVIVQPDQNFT
Assay: binding ELISA, human c-Met (Decoy)
Answer with a number only, understood to be in nM.

Observe how each entry below is paired with its result.
{"binder": "12G4 mAb (antibody, human IgG1, V domains shown, llama VH/V lambda fused to human IgG1 constant domains and human C lambda) VH: QLQLVESGGGMAQPGGSLKLSCAASGFTFDDYAMTWVRQAPGKGLEWLSTISWNDINTYYAESMKDRFTISRDNAKNTLYLQMNSLESEDTAVYYCAKRRDNYYGTSGEYDYWGQGTQVTVSS VL: QSALTQPPSVSGTLGKTVTISCAGTSSDIGNYNYVSWYQQLPGTAPKLLIYEVNKRPSGIPDRFSGSKSGNTASLSISGLQSEDEADYYCASYRSSNNVVFGGGTKLTVL", "units": "nM", "EC50": 0.42}
{"binder": "20A11 mAb (antibody, human IgG1, V domains shown, human IgG1 constant domains and human C lambda) VH: QVQLVESGGGLVQPGGSLRLSCAASGFTFDDYAMSWVRQAPGKGLEWVSAISWNGSSTYYAESMKGRFTISRDNAKNTLYLQMNSLKSEDTAVYYCAKDLIGSHDYWGQGTQVTVSS VL: QAVLTQPPSVSGTLGKTLTISCAGTSSDVGYGNYVSWYQQLPGTAPKLLIYAVSTRASGIPDRFSGSKSGNTASLTISGLQSEDEADYYCASYRSSNNYAFGAGTKLTVL", "units": "nM", "EC50": 4.3}

Input line: Check the records and state EC50 for 38H10 mAb (antibody, human IgG1, V domains shown, human IgG1 constant domains and human C kappa) VH: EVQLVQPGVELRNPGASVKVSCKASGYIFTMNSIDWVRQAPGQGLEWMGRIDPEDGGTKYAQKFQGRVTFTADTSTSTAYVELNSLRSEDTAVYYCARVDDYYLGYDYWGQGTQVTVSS VL: EIVMTQSPSSVTASAGEKVTINCKSSQSVLWRSNQKNYLAWYQQRLGQSPRLLISWASIRESGVPDRFSGSGSTTDFTLTISSFQPEDAAVYYCQQGYSFPYTFGSGTRLEIK
Output line: 0.19
